In this section, each of the compounds is paired with its reported melting point.

COc1cc(C(OC)OC)cc([N+](=O)[O-])c1O: 58 to 59 °C
CCOC(=O)CS(=O)(=O)Cl: 74 to 77 °C
COc1ccc(C2(C#Cc3cccc(-c4noc(C(F)(F)F)n4)c3)CCCC(=O)C2)cc1OC1CCCC1 (stereo unspecified): 99 to 100 °C
Nc1nc2ccc(SC(F)(F)F)cc2s1: 155 °C
COCc1cc(N)n2nc(SC)c(S(=O)(=O)c3ccccc3)c2n1: > 230 °C

// moving on: another record for melting point
Requested field: melting point. Item: OC1CCc2c(Cl)cc(Cl)c(I)c21 (stereo unspecified)
95 to 100 °C

* * *

property label: melting point

Cc1coc2c1C(=O)CC(c1ccc(F)cc1)C2 (stereo not given): 81 to 82 °C

melting point lookup needed for Cc1cc(-c2[nH]c3ccccc3c2C)cc(C)c1O , thanks.
143 to 144 °C

Sample N#Cc1ccc(C(=C2CCCC2)c2ncc[nH]2)cc1 — what was its melting point?
108 to 110 °C

Consider the molecule shown here: O=c1[nH]c2ccccc2c2c1CNCC2 What is its recorded melting point?
292 to 295 °C

Item CN1C(=N)CN(c2ccccc2)C1=O has what recorded melting point?
156 to 158 °C

Consider the molecule shown here: CC(C)C(NC(=O)OCc1ccncc1)C(=O)NC(Cc1ccccc1)C(O)C(O)C(Cc1ccccc1)NC(=O)C(NC(=O)OCc1ccncc1)C(C)C (stereo not given) What is its recorded melting point?
190 to 193 °C

For NC(C(=O)CCC(=O)O)c1ccc(Nc2n[nH]c3ncnc(Nc4cccc(Cl)c4)c23)cc1 (stereo not given) , what is its reported melting point?
205 to 207 °C

What does the record list as melting point for COC(=O)c1cscc1NC(=O)NCCCCCBr ?
92 to 93.5 °C

Using the record for CS(=O)(=O)Nc1cc2oc(N)cc(=O)c2cc1Oc1ccccc1 , report its melting point.
223 to 225 °C

Please give the measured melting point for this molecule: Clc1ccc2c(Nc3ccc(CNC4CCN(Cc5ccccc5)CC4)cc3)ccnc2c1
160 to 164 °C

* * *

Here, each record is paired with measured melting point data.

Look over these answered cases.
CCCn1cc(C(=O)NCc2ccc(Cl)cc2)c(=O)c2cc(CN3CCOCC3)sc21: 174 to 176 °C
CCOC(=O)C1=C(COCCNS(N)(=O)=O)NC(C)=C(C(=O)OC)C1c1ccccc1Cl (stereo not given): 150 to 152 °C
Nc1ccccc1C(O)c1cc(C(F)(F)F)nc2c(C(F)(F)F)cccc12 (stereo not given): 146 °C
Cc1cccc(-n2c(-c3cc(-c4ccc(Cl)cc4)c(N4CCOCC4)s3)nc3ccccc3c2=O)c1: 228 to 230 °C

Which value of melting point has been reported for O=C(Nc1ccccc1)N(Cc1ccc(Br)cc1)C1CCCC1 in the records?
130 to 132 °C

* * *

property label: melting point

# annotated cases, reported melting point shown
Cc1cc(C(=O)N2Cc3cccn3Cc3ccccc32)ccc1C1=CC(=O)CCC1: 176 to 177 °C
O=C(NCc1ccon1)c1ccnc(N2CCN(Cc3ccc(F)cc3)C2=O)c1: 127 to 129 °C
CC(C)(C)c1cc(C(=O)CI)cc(C(C)(C)C)c1O: 88 to 89 °C
C=CCOc1cc(O)c(C=NO)c(Cl)c1: 65 to 66 °C
CCOC(=O)c1cccc(-c2cc3c(Nc4cccc(Cl)c4)ncnc3[nH]2)c1: > 300 °C
CCCC(=O)c1cnc2c(OC)cccc2c1Nc1cccc(CO)c1C: 186 to 188 °C
CCOC(=O)c1c(O)ncnc1CC: 84.5 to 86 °C
COc1ccc(S(=O)(=O)N2C(=O)C(c3ccccc3OC)(N3C[C@H](OC)C[C@H]3C(=O)N(C)C)c3cc(Cl)ccc32)c(OC)c1 (stereo not given in full): 189 to 191 °C
CCCCCCCCCCCCSCCCc1cc(C(C)(C)C)c(O)c(C(C)(C)C)c1: 26 to 27 °C
C=CCC(CC)(C(=O)c1ccc(OCCO)cc1)N(C)C (stereo not given): 80 to 82 °C

Look at this compound and give its reported melting point. O=C1C=c2c(c3c4ccccc4sc3c3[nH]c4ccccc4c23)=N1
> 300 °C

Reported melting point, compound COC(=O)c1cc(OCc2cc(SC)cc(SC)c2)cc(OCc2cc(SC)cc(SC)c2)c1 : ____
121 to 122 °C

Using the record for Oc1ccccc1-c1cc(-c2ccc(F)c(F)c2)cc(-c2ccc(Cl)cc2)n1 , report its melting point.
146 to 148 °C

Data request, read-out melting point, for CCCC(c1ccncc1)n1ccc2ccccc21 (stereo not given)
91 to 94 °C

Recorded melting point for CC(=O)N(CC(C)C)C1NC(=O)N(c2ccc(C(=O)O)cc2)C(=O)N1 , please?
191 to 193 °C

Item under review: Cc1c(CCNC(=S)Nc2nccs2)cccc1C(F)(F)F . Reported melting point?
158 to 159 °C

* * *

In this section, each of the compounds is paired with its reported melting point.

Take a look at these entries with their results.
Nc1nc2c(ncn2COCCOCCO)c(=O)[nH]1: 184 to 187 °C
CC(CCCC(C)C1C(O)CC2C3CC=C4CC(O)CCC4(C)C3CCC21C)CN1C(=O)c2ccccc2C1=O (stereo unspecified): 134 to 136 °C
Cn1nc(-c2ccc(Cl)cc2F)cc1O: 204 °C

Endpoint output: melting point of CCOC(=O)/C=C/c1ccc(C=Cc2nc(-c3ccc4ccccc4c3)oc2C)cc1 . Value?
186 to 187 °C

So what does the record say about melting point for Cc1nn(C(N)=O)c2c1C(=O)CC(C)(C)C2 ?
173 to 175 °C

Query (compound): CCCCNc1c(C(C)=O)cnc2onc(C)c12 ; field requested: melting point
116 to 117 °C

* * *

property label: melting point

CCOC(=O)c1cc(Oc2ccccc2)ccc1OC: 52 °C
O=S(=O)(Cc1ccccc1)c1nc2ccc(O)cc2s1: 188 to 189 °C

# lookup: melting point of CC(C)(C)C(=O)Nc1ccc(O)cc1
168 to 170 °C

Give the measured melting point of CCCCCC(COc1ccc(C(=O)O)cc1)c1ccc2c(c1)C(C)(C)CCS2 (racemic) .
168 to 169 °C

Please look up its melting point: C=CC(C)(C)C(=O)C(Oc1ccc(Cl)cc1)n1ccnc1 (stereo unspecified)
72 to 74 °C

Any idea what its melting point is? The compound is CN(C)S(=O)(=O)n1c(C(=S)NC(O)C(Cl)(Cl)Cl)nc2cc(Cl)c(Cl)cc21 (stereo unspecified)
158 to 160 °C

melting point for Cn1ncc(C(=O)O)c1C(=O)Nc1ccc2nc(-c3ccccc3)nn2c1 ?
259 °C

Dear colleague, I am looking for the recorded melting point of the following compound: CC1=N/C(=C\c2c[nH]c3ncccc23)C(=O)N1Cc1ccccc1
274 to 275 °C

Fill blank: measured melting point of the compound CCCC(=O)n1nc(-c2ccncc2)nc1-c1ccncc1 is ____.
116 to 118 °C

Which melting point reading was recorded for the compound Cc1ncccc1NC(=NC#N)NC(NC(=O)CCCCc1ccccc1)C(C)(C)C (stereo unspecified) ?
133 to 134 °C

Consider the compound shown here: CC(=O)Nc1ccn2nc(-c3ccccc3)c(-c3ccc(=O)n(C(C)C)n3)c2c1 What is its recorded melting point?
221 to 222 °C

What value of measured melting point is listed for COC1COc2cc(NS(C)(=O)=O)c(Oc3ccccc3)cc2C1=O (stereo unspecified) ?
139 to 141 °C

# input compound: Cc1c(NC(=O)c2ccc(-c3ccc(F)cc3)cc2F)ccc2cc(CN3CCCC3)cnc12 ; wanted: its melting point
176 to 178 °C

Bench note: what melting point did CC(C)NC1=NS(=O)(=O)c2ccc(C3CCCCC3)cc2N1 show?
131 to 133 °C

Param item = Cc1cc(NS(=O)(=O)c2ccccc2)no1 ; retrieve measured melting point.
107 to 108 °C

Quick one: melting point for Cc1cccc(C)c1C(=O)OC1CCCCC1=O (stereo unspecified) ?
82 to 83 °C

What value of melting point has been reported for the following compound? Cc1cc(C)cc(C(=O)c2c(C(C)C)c(=O)[nH]c(=O)n2CC2=CC(CO)C(CO)C2)c1 (stereo unspecified)
81 to 82 °C

Data request, read-out melting point, for O=C(O)c1cnc2cc([N+](=O)[O-])ccc2n1
208 to 210 °C

Recorded melting point for C=CCOc1ccc(C#N)c(O)c1 , please?
134 to 136 °C

Quick one: melting point of NC(=O)c1cc([N+](=O)[O-])c(Cl)cc1N1CC1 ?
155 °C

Suppose we examine the compound O=S(=O)(Nc1cccc(Oc2cccc3cccnc23)c1)c1ccc(Cl)cc1 ; what melting point value has been reported?
190 to 191 °C
